experiment: Nanolitre osmometry of carbohydrate solutions (Experiment 2); settings: 10 mg/mL solutions in double-distilled water
readout_name: Melting Point (°C)

Sample answers from the record:
# compound, unit_spec, assay_value
records = [
    ("OCC1O[C@H](OCC2O[C@@H](O)C(O)C(O)[C@@H]2O)C(O)C(O)[C@H]1O (stereo partly shown) [melibiose]", "°C", "−0.17"),
    ("OCC1O[C@@H](O)C(O)[C@@H](O)[C@@H]1O (stereo partly drawn) [D-glucose]", "°C", "−0.055"),
]

[A] OCC1O[C@@H](O)C(O)[C@@H](O)[C@H]1O (stereo partly drawn) [D-galactose]
[B] OCC1O[C@H](O[C@H]2OC(CO)[C@@H](O)C(O)C2O)C(O)C(O)[C@@H]1O (stereo partly drawn) [D-trehalose]
For this pair, A and B , which shows a numerically higher Melting Point? Answer by quoting the chosen item's label.
B

All figures here come from patent US20100068692A1.
